biological target: PIM1 transgenic cells (Ba/F3) (Homo sapiens, UniProt P11309); test: Proliferation inhibitory effect on PIM1 transgenic cells; type: cell-based, mouse; conditions: proliferation inhibition, 72 hours, Cell Counting Kit-8, read-out: PIM1 IC50
Sequence (P11309 whole entry, change not shown): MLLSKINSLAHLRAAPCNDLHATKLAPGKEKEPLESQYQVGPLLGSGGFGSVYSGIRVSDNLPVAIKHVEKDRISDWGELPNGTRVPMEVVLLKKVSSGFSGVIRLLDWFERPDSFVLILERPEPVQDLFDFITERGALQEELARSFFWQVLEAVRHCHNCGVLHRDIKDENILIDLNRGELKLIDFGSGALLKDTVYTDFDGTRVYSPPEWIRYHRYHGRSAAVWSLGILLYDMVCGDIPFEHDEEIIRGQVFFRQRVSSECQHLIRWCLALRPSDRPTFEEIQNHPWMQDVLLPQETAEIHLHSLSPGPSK
Where a name gives a salt, the structure may show the parent alone.
VALUE_KIND: GI50 (nM)

Solved entries:
C[C@H](Nc1cc(-c2n[nH]c(=O)o2)ccc1C(F)(F)F)[C@H]1CC[C@H](NCCO)CC1 [Example 201, hydrochloride]; 560
NCC(O)C1CCN(c2cc(-c3n[nH]c(=O)o3)ccc2C(F)(F)F)CC1 (centres unmarked) [Example 14, hydrochloride]; 1300
CC[C@H]1CNCC[C@H]1[C@H](C)Nc1cc(-c2n[nH]c(=O)o2)cc(F)c1C(F)(F)F; 83
C[C@H](Nc1cc(-c2n[nH]c(=O)o2)cc(C#N)c1Cl)C1CCNCC1 [Example 110, hydrochloride]; 2100
CC[C@H](Nc1cc(-c2n[nH]c(=O)o2)cc(F)c1Cl)C1CCNCC1 [Example 139, hydrochloride]; 80

A. C[C@H](Nc1cc(-c2n[nH]c(=O)o2)cc(F)c1OC(F)F)C1CCNCC1
B. C[C@H](Nc1cc(-c2n[nH]c(=O)o2)cc(F)c1OC(F)(F)F)[C@H]1CC[C@H](N)CC1 [Example 170, hydrochloride]
Ask: Rank A against B by their GI50 values and give the higher one. # answer = label of selected item
Reply: A

---

target: PIM1 transgenic cells (Ba/F3) (Homo sapiens, UniProt P11309); assay: Proliferation inhibitory effect on PIM1 transgenic cells; format: cell-based, mouse; conditions: proliferation inhibition, 72 hours, Cell Counting Kit-8, read-out: PIM1 IC50
Counter-ions that a name gives are not always drawn.
VALUE_KIND: GI50 (nM)

Check out these entries, answers already filled in.
O=c1[nH]nc(-c2cc(F)c(C(F)(F)F)c(N[C@@H](CF)C3CCNCC3)c2)o1 [Example 160, hydrochloride]; 40
CCN[C@H]1CC[C@H]([C@H](C)Nc2cc(-c3n[nH]c(=O)o3)ccc2C(F)(F)F)CC1 [Example 193, hydrochloride]; 160
CC[C@H](Nc1cc(-c2n[nH]c(=O)o2)cc(F)c1C(F)(F)F)[C@H]1CC[C@H](N)CC1 [Example 198]; 100
C[C@H](Nc1cc(-c2n[nH]c(=O)o2)ccc1C(F)(F)F)[C@@H]1C[C@H](N)C1(C)C [Example 137, hydrochloride]; 27
N[C@H]1CC[C@H](CSc2cc(-c3n[nH]c(=O)o3)ccc2C(F)(F)F)CC1 [Example 234]; 120

A. O=c1[nH]nc(-c2ccc(Cl)c(NCC3CCNCC3)c2)o1 [Example 47, hydrochloride]
B. C[C@@H]1CNCC[C@@H]1[C@H](C)Nc1cc(-c2n[nH]c(=O)o2)cc(F)c1OC(F)F [Example 214]
C. C[C@H](Nc1cc(-c2n[nH]c(=O)o2)cc(F)c1F)C1CCNCC1 [Example 89]
Ask: Write the entries in order, lowest recorded GI50 first. Please respond with the labels ordered as the question requires.
Reply: B, C, A
(B: 34 nM, C: 250 nM, A: 820 nM)

A. C[C@@H]1CN([C@@H](C)[C@H]2CC[C@H](N)CC2)c2cc(-c3n[nH]c(=O)o3)cc(F)c2O1 [Example 253, hydrochloride]
B. C[C@H](Nc1cc(-c2n[nH]c(=O)o2)ccc1C(F)(F)F)[C@H]1CC[C@H](N)CC1 [Example 106, hydrochloride]
Ask: Of A and B , whose reported GI50 is numerically smaller? Refer to your chosen item by its label in the answer.
Reply: B
(B: 19 nM, A: 81 nM)

1. C[C@@H](CN)Oc1ccc(-c2cc(-c3n[nH]c(=O)o3)ccc2C(F)(F)F)cc1 [Example 24, hydrochloride]
2. C[C@H](Nc1cc(-c2n[nH]c(=O)o2)ccc1Cl)[C@H]1C[C@@H](N)C1(C)C [Example 168]
3. NCc1ccc(-c2cc(-c3n[nH]c(=O)o3)ccc2C(F)(F)F)cc1 [Example 20, hydrochloride]
4. N[C@H]1CC[C@H](CNc2cc(-c3n[nH]c(=O)o3)ccc2C(F)(F)F)CC1 [Example 55, hydrochloride]
5. CC(CCCCN)Nc1cc(-c2n[nH]c(=O)o2)ccc1C(F)(F)F (stereo not drawn) [Example 5, hydrochloride]
Ask: Sort low-to-high on GI50, please. Give your ranking as a list of the labels in the requested order.
Reply: 4, 2, 5, 1, 3

I. C[C@@H]([C@H]1CC[C@H](N)CC1)N1CCOc2ccc(-c3n[nH]c(=O)o3)cc21 [Example 247]
II. CC[C@@H]1CNCC[C@@H]1[C@H](C)Nc1cc(-c2n[nH]c(=O)o2)cc(F)c1C [Example 229]
Ask: Of I and II , whose reported GI50 is numerically smaller? Please identify the chosen entry by its label.
Reply: II
(II: 19 nM, I: 120 nM)

I. NCCCCNc1cc(-c2n[nH]c(=O)o2)ccc1C(F)(F)F [Example 1, hydrochloride]
II. N[C@H]1CC[C@H](CNc2cc(-c3n[nH]c(=O)o3)ccc2Cl)CC1 [Example 61, hydrochloride]
III. CN(CC1CCNCC1)c1cc(-c2n[nH]c(=O)o2)ccc1C(F)(F)F [Example 51, hydrochloride]
Ask: Sort entries by GI50 from minimum to maximum value. Write the labels in rank order as requested.
Reply: II, I, III
(II: 44 nM, I: 1900 nM, III: 3100 nM)

P. C[C@H](Nc1cc(-c2n[nH]c(=O)o2)cc(F)c1Cl)C1CCNCC1 [Example 76, hydrochloride]
Q. C[C@H](Nc1cc(Cl)cc(-c2n[nH]c(=O)o2)c1)C1CCNCC1 [Example 105, dihydrochloride]
Ask: Consider entries P and Q . Which has the numerically lower GI50? Identify your pick by its label.
Reply: P

a. O=c1[nH]nc(-c2ccc(C(F)(F)F)c(NCC3(F)CCCNC3)c2)o1 (stereo not drawn) [Example 109, hydrochloride]
b. CN[C@H]1C[C@@H]([C@H](C)Nc2cc(-c3n[nH]c(=O)o3)ccc2C(F)(F)F)C1 [Example 192, hydrochloride]
Ask: Which is greater in GI50, the first item a or the second item b ? Answer format: the label of the selected item.
Reply: a

1. O=c1[nH]nc(-c2ccc(C(F)(F)F)c(NCCC3CCCNC3)c2)o1 (stereo not drawn) [Example 60, hydrochloride]
2. C[C@H](Nc1cc(-c2n[nH]c(=O)o2)ccc1Cl)[C@@H]1C[C@H](N)C1(C)C [Example 158, hydrochloride]
Ask: Select one. Lower GI50: 1 or 2 When you have decided, please share the label of that item.
Reply: 2
